Reference source for all entries: the supplement of paper PMC10567573

B1: CLCN6 (parent)
chain: TGLVGLFVDFFVRLFTQLKFGVVQ

Variants of: B1
Protocol summary: protein stability index of a GFP-peptide fusion (GPS, HEK-293T) (PSI 1-6); higher = more stable;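 note: lentivirally expressed fusions sorted by FACS into six bins by GFP to DsRed ratio, PSI derived from sequencing read proportions per bin multiplied by bin number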
Settings: c terminus: a fixed tail appended
Please note: 1 applies when protein stability index is 2 or greater, and 0 applies otherwise.

variant_descriptor=F15W label_value=1
variant_descriptor=G5E label_value=0
variant_descriptor=T1V label_value=0
variant_descriptor=D9L label_value=0
variant_descriptor=F15Q label_value=1
variant_descriptor=F10V label_value=1
variant_descriptor=Q24N label_value=1
variant_descriptor=G2K label_value=1
variant_descriptor=D9K label_value=1
variant_descriptor=T1K label_value=1
variant_descriptor=D9C label_value=0
variant_descriptor=F7G label_value=0
variant_descriptor=F11C label_value=1
variant_descriptor=F10A label_value=1
variant_descriptor=F10Q label_value=0
variant_descriptor=Q24V label_value=0
variant_descriptor=G2Y label_value=1
variant_descriptor=F11M label_value=1
variant_descriptor=F7I label_value=1
